A collection of molecules and their measured melting point

molecule	measurement
O=C(Nc1ccc2c(c1)OCO2)N1Cc2ccccc2C1	165 to 166 °C
COc1cccc2c1CCCC2NC(=O)c1cccc(Cl)c1O (stereo not shown)	175 to 176 °C
CCOc1ccc(NC(=O)NCCc2ccccn2)cc1	163 to 164 °C
CCCC(CCC)NC(=O)Nc1ccccc1Cl	135 to 136 °C
COc1cc(C)ccc1CNC(=O)C(=O)NCCc1ccccn1	128 to 131 °C
CCCC(CCC)NC(=O)Nc1ccc(OC)cc1OC	172 to 173 °C

Form field: reported melting point of COc1cc(C)ccc1CNC(=O)C(=O)NCCc1ccc(C)cn1 133.5 to 134 °C

Form field: reported melting point of COc1ccc2c(c1)CCC[C@H]2NC(=O)c1cccc(Cl)c1O 111 to 113 °C

Form field: reported melting point of COc1cccc2c1CCC[C@H]2NC(=O)c1cccc(Cl)c1O 175 to 176 °C

Form field: reported melting point of COc1ccc(CNC(=O)C(=O)NCCc2cccs2)c(OC)c1 146 to 147 °C
